So I've got a bunch of molecules here, and I need their IC50 values.
target entity: BuChE (Rattus norvegicus)
Construct: The brain and serum of Sprague–Dawley rat was used as the resource of AChE and BuChE, respectively
Sequence (Q9JKC1 24-597): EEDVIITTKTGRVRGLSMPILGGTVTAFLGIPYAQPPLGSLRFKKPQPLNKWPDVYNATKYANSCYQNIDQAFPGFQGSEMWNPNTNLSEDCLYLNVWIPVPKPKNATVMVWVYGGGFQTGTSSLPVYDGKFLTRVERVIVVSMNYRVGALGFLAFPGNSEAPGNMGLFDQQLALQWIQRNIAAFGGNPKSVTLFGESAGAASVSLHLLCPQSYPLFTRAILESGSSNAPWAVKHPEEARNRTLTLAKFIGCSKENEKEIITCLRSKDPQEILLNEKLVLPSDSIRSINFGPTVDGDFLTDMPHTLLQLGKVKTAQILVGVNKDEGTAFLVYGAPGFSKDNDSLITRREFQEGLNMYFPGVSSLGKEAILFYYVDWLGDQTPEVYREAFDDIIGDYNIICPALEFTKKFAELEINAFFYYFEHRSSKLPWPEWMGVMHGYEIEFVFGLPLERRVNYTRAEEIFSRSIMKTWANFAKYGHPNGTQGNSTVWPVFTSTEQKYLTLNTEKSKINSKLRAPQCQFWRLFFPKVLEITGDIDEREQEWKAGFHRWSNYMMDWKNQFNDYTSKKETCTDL
experiment description: BuChE inhibition assay (Ellman method)

O=C(/C=C/c1ccc(Cl)cc1)c1ccc(O)cc1 [Compound 3c, 4'-Hydroxy-4-chlorochalcone] :: > 500 µM
O=C(/C=C/c1ccccc1Cl)c1ccc(O)cc1 [Compound 3a, 4'-Hydroxy-2-chlorochalcone] :: > 500 µM

The molecule listed as O=C(/C=C/c1cccc(Cl)c1)c1ccc(O)cc1 [Compound 3b, 4'-Hydroxy-3-chlorochalcone] shows IC50 equal to > 500 µM

Every entry's value here was drawn from paper PMC6009910.
